# Test description: Viability qHTS for spleen associated tyrosine kinase inhibitor (SYKi) drug resistant MV4-11 cells (AID 1963824); further: nearly all actives have a fitted effect of over 35% in size
# Stated conditions: SYKi-resistant MV4-11 viability, CellTiter-Glo, 72 h; series mostly up to 45 µM
Inconclusive results are not listed. Calls of active or inactive are those of the source. The call rests on the fitted dose curve; in most records, active means well fitted cell-killing curve with a large enough effect; inconclusive means small, poorly fitted or top-dose-only effect, or effect the other way; inactive means no such curve, though single readings can be large or run the other way.
Thanks in advance; please answer with one of these: active, inactive

Worked examples, 6 compounds total:
{"Compound": "CN1C(=O)CCS(=O)(=O)C1c1ccc(Cl)cc1 (stereo not drawn)", "Assigned label": "inactive"}
{"Compound": "COC(=O)C12C(=O)C(C)(O)C(=O)C1(C)C(C)=CC1C34CCC(OC3=O)C(C)(CO)C4CCC12C (stereo not drawn)", "Assigned label": "inactive"}
{"Compound": "O=S(=O)(CC1CS1)c1ccc(Oc2ccccc2)cc1 (stereo not drawn)", "Assigned label": "active"}
{"Compound": "CO/C1=C\\C(C)=C\\[C@@H](C)[C@@H](O)[C@@H](C)C/C(C)=C/C=C/[C@H](OC)[C@@H]([C@@H](C)[C@@H](O)[C@H](C)[C@@]2(O)C[C@@H](O)[C@H](C)[C@@H](C(C)C)O2)OC1=O", "Assigned label": "active"}
{"Compound": "CO/C1=C/C(C)=C\\[C@@H](C)[C@@H](O)[C@@H](C)C/C(C)=C\\C=C/[C@H](OC)[C@@H]([C@@H](C)[C@@H](O)[C@H](C)[C@@]2(O)C[C@@H](O)[C@H](C)[C@@H](C(C)C)O2)OC1=O", "Assigned label": "active"}
{"Compound": "CC1=C(O)C(=O)C=C2C1=CC=C1[C@@]2(C)CC[C@@]2(C)[C@@H]3C[C@](C)(C(=O)O)CC[C@]3(C)CC[C@]12C", "Assigned label": "active"}

Task item: Just curious, what result did "C=C(C)[C@@H]1CCC(C)=C[C@H]1c1c(O)cc(CCCCC)cc1O" get here?
Reply: active

Task item: Just curious, what result did "C[C@@H]1Cc2c(Cl)cc(C(=O)N[C@@H](Cc3ccccc3)C(=O)O)c(O)c2C(=O)O1" get here?
Reply: active

---

Exercise: state measured activity (max response) for each of the molecules provided.
# Test description: Cellular viability qHTS for adrenocortical cancer (ACC) cell line SW-13 (AID 1963989);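 further: cells grown in serum-free medium with ITS supplement; on the % scale 0 is the no-effect control and ±100 the full control effect; nearly all actives have a fitted effect of over 65% in size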
# Stated conditions: SW-13 ACC cells viability, CellTiter-Glo, 48 h; stronger effect = lower value
Results filed as inconclusive are left out.
Numbers only, in %.

{"Molecule": "CCC(CC)(CNC(=O)CCCO)c1cccc(OC)c1", "Units of measure": "%", "activity (max response)": 8.71}
{"Molecule": "COc1ccc2c(C(=O)c3ccc(Cl)cc3)c(C)n(CC(=O)O)c2c1", "Units of measure": "%", "activity (max response)": 8.1}
{"Molecule": "CCC1(c2ccccc2)C(=O)N(COC)C(=O)N(COC)C1=O", "Units of measure": "%", "activity (max response)": -1.61}
{"Molecule": "Oc1ccc2c3c1O[C@H]1[C@@H](O)C=C[C@H]4[C@@H](C2)NCC[C@@]341", "Units of measure": "%", "activity (max response)": -14.8}
{"Molecule": "CCN(CC)CCN1C(=O)CN=C(c2ccccc2F)c2cc(Cl)ccc21", "Units of measure": "%", "activity (max response)": 2.24}

# batch size: 2; output activity (max response) per entry
1. COC[C@H]1OC(=O)c2coc3c2[C@@]1(C)C1=C(C3=O)[C@@H]2CC[C@H](O)[C@@]2(C)C[C@H]1OC(C)=O
2. CCCN1CCC[C@@H]2Cc3[nH]ncc3C[C@H]21

Reply:
-16.1
1.08

# batch size: 3; output activity (max response) per entry
1. CNC(C)Cc1ccccc1OC (stereo not drawn)
2. CC(C)C[C@H](CN)CC(=O)O
3. C[C@H]1[C@H](O)[C@@H](C)/C=C/C=C/CC/C=C/C=C/C=C/C=C/[C@H](O[C@@H]2O[C@H](C)[C@@H](O)[C@H](N)[C@@H]2O)C[C@@H]2O[C@](O)(C[C@@H](O)[C@H](O)CC[C@@H](O)C[C@@H](O)C[C@@H](O)CC(=O)O[C@H]1C)C[C@H](O)[C@H]2C(=O)O

Reply:
-2.94
8.17
-20.1

# batch size: 4; output activity (max response) per entry
1. CCN[C@@H](C)Cc1ccccc1
2. COc1cc(C[C@@H](C)N)c(OC)cc1Br
3. CCC(COC(=O)c1cc(OC)c(OC)c(OC)c1)(c1ccccc1)N(C)C (stereo not drawn)
4. c1cc2c(c(N3CCNCC3)c1)OCCO2

Reply:
1: -5.58; 2: -7.05; 3: -2.65; 4: -0.802
